Assay system: Kinesin-like protein KIF18A (Homo sapiens)
Sequence (Q8NI77 whole entry, the tested form may be a part): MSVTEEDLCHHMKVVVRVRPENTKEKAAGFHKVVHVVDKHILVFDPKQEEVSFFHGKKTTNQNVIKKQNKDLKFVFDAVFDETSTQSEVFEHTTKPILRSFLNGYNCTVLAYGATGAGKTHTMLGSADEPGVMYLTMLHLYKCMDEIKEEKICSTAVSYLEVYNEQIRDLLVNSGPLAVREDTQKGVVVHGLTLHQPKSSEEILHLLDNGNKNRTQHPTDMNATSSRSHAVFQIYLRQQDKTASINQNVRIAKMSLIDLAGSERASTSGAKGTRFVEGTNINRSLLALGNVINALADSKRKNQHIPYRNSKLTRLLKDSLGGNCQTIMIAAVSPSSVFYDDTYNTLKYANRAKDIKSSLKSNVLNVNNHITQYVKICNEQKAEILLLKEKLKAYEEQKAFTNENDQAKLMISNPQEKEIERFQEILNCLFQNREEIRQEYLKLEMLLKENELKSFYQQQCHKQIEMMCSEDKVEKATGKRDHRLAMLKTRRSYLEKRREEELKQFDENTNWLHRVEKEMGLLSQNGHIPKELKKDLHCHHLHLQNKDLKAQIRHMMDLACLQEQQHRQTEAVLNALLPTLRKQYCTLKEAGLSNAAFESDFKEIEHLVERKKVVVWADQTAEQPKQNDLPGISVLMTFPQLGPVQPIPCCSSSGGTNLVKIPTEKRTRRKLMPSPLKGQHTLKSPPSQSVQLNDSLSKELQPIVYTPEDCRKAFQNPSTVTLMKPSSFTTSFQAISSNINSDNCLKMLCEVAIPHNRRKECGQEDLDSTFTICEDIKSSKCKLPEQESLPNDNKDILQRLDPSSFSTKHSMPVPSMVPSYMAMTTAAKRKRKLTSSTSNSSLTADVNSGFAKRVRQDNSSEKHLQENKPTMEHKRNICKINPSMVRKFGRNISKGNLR
Method description: Inhibition of recombinant His-tagged human KIF18A (1 to 467 residues) expressed in baculovirus expression system assessed as inhibition of microtubule-stimulated ATPase activity preincubated for 15 mins followed by ATP addition and further incubated for 15 mins and measured after 40 mins by ADP-Glo reagent based assay
pIC50: −log10 of the molar value.
Measured quantity: pIC50

Known results for compounds:
Smiles notation	Numeric result
Cc1cc(NC(=O)c2ccc(S(C)(=O)=O)cc2N2CCC3(CC2)CC3)nc(NC(C)(C)CO)n1	6.73
Cc1cc(NC(=O)c2ccc(S(=O)(=O)[C@@H](C)CO)cc2N2CCC3(CC2)CC3)nc(N2CCC(F)(F)CC2)n1	7.24

1. Cc1cc(NC(=O)c2ccc(NS(=O)(=O)C[C@H](C)O)cc2N2CCC3(CC2)CC3)nc(N2CCO[C@H](C)C2)n1
2. Cc1cc(NC(=O)c2ccc(S(=O)(=O)[C@H](C)CO)cc2N2CCC3(CC2)CC3)nc(N2CCC(F)(F)CC2)n1
In the pair 1 and 2 , the larger recorded pIC50 belongs to which? # respond with the chosen item's label
2
(2: 7.19, 1: 6.82)
